test.description: Metabolic stability in rat liver microsomes assessed as parent compound remaining at 1 uM preincubated for 10 mins followed by incubation in phosphate buffer at pH 7.4 for 60 mins by LC-MS/MS analysis
Assay type: ADME, Microsome
stated.conditions: time 70 min, read-out: Stabilty
endpoint: remaining at 1 h, 1 µM (%)
Just the number please, in %, no unit attached.

Item: N#Cc1c(N2CCOCC2)sc(-c2nc[nH]n2)c1-c1ccc(NC(=O)Nc2ccccc2Cl)cc1 | remaining at 1 h, 1 µM: 42.6

====

tested.on: Serine/threonine-protein kinase mTOR (Homo sapiens)
test.description: Inhibition of N-terminal FLAG-tagged human recombinant mTOR (1362 to end residues) using ULight-4E-BP1 (Thr37/46) peptide as substrate incubated for 1 hr in presence of ATP by Lance Ultra assay
pIC50: −log10 of the molar value.
Is pIC50 at least 6? Then true (1). If not, false (0).

Record N#Cc1c(N2CCOCC2)sc(-c2nc[nH]n2)c1-c1ccc(NC(=O)Nc2ccc(F)cc2)cc1 ; criterion: pIC50 no lower than 6. Met?
false (0)

Please tell me: is the compound N#Cc1c(N2CCOCC2)sc(-c2nc[nH]n2)c1-c1ccc(NC(=O)N/N=C/c2cccc(O)c2)cc1 at or over 6 in terms of pIC50?
true (1)

Kindly determine if pIC50 recorded for N#Cc1c(N2CCOCC2)sc(-c2nc[nH]n2)c1-c1ccc(NC(=O)Nc2ccccc2F)cc1 is above or exactly 6.
false (0)

Determine whether this compound has pIC50 no lower than 6: N#Cc1c(N2CCOCC2)sc(-c2nc[nH]n2)c1-c1ccc(NC(=O)N/N=C/c2ccco2)cc1
true (1)

Does N#Cc1c(N2CCOCC2)sc(-c2nc[nH]n2)c1-c1ccc(NC(=O)N/N=C/c2ccccn2)cc1 have a reported pIC50 of at least 6?
true (1)

Does N#Cc1ccc(-c2c(-c3nnc[nH]3)sc(N3CCOCC3)c2C#N)c(F)c1 have a reported pIC50 of at least 6?
false (0)

Entry N#Cc1c(N2CCOCC2)sc(-c2nc[nH]n2)c1-c1ccc(NC(=O)Nc2ccccc2Cl)cc1 : is its pIC50 no less than 6?
false (0)

====

test.description: Apparent permeability across basolateral to apical side in human Caco2 cells at 2 uM incubated for 2 hrs by LC-MS/MS analysis
Type: ADME, cell-based
stated.conditions: Caco-2
endpoint: Papp B→A at 2 h, 2 µM (×10⁻⁶ cm/s)
Respond with the bare value in ×10⁻⁶ cm/s.

Noted for N#Cc1c(N2CCOCC2)sc(-c2nc[nH]n2)c1-c1ccc(NC(=O)Nc2ccccc2Cl)cc1 : its Papp B→A at 2 h, 2 µM reads 8.4

====

test.description: Apparent permeability across apical to basolateral side in human Caco2 cells at 2 uM incubated for 2 hrs by LC-MS/MS analysis
Format: ADME, cell-based
stated.conditions: Caco-2
endpoint: Papp A→B at 2 h, 2 µM (×10⁻⁶ cm/s)
Provide only the numeric value, understood in ×10⁻⁶ cm/s.

So for N#Cc1c(N2CCOCC2)sc(-c2nc[nH]n2)c1-c1ccc(NC(=O)Nc2ccccc2Cl)cc1 , the logged Papp A→B at 2 h, 2 µM turned out to be 7.8

Where do these numbers come from? They come from ChEMBL document CHEMBL4765307.
